system.name: HIPK1 (Homo sapiens, UniProt Q86Z02)
Sequence (Q86Z02 whole entry, species assumed): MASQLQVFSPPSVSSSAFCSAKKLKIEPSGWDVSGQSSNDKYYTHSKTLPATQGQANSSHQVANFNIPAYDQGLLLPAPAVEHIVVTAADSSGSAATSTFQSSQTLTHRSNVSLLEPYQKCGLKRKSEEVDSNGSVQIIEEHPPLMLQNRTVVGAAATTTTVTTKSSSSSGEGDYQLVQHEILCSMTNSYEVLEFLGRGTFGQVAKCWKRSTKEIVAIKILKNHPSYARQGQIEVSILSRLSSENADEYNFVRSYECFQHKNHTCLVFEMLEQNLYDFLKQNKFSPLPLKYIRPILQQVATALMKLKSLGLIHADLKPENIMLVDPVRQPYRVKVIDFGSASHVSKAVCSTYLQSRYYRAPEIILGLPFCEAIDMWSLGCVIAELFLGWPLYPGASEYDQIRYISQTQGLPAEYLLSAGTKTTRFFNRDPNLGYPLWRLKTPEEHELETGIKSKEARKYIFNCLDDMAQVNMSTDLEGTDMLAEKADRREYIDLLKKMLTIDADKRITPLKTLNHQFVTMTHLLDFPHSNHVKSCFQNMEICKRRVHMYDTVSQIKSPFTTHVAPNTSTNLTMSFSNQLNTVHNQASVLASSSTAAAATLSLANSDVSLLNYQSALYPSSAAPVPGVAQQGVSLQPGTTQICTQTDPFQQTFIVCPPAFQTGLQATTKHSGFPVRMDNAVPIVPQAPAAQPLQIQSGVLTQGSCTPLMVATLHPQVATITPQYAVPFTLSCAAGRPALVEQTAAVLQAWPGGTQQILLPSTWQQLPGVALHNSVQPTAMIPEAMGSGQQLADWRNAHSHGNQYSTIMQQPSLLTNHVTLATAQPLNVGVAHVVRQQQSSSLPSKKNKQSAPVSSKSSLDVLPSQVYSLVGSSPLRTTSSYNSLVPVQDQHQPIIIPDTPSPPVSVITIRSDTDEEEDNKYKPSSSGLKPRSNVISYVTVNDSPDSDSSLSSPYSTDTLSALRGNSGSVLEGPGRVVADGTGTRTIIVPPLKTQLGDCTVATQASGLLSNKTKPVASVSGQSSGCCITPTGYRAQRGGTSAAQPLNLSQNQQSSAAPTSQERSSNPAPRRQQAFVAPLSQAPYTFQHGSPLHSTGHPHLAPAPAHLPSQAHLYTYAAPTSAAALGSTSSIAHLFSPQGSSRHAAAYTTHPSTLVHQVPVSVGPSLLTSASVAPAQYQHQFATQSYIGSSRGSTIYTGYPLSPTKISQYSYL
measured.endpoint: IC50

Measured IC50 of COc1ccc2nc3ccc(OC)cc3c(SCCCN)c2c1 : 1.4 µM

----------
system.name: human Haspin (MBP-Haspin) (Homo sapiens, UniProt Q8TF76)
Construct: This full-length Haspin gene was cloned into the pMALc2E vector; made in house; host or cells: E. coli Rosetta2(DE3)pLysS
assay.procedure: TR-FRET Haspin assay
Type: biochemical
measurement.conditions: TR-FRET assay of Example 3
measured.endpoint: IC50

The reported IC50 of the compound NCCCSc1c2cc(O)ccc2nc2ccc(O)cc12 was < 0.05 µM

// recorded IC50 for COc1ccc2nc3ccc(OC)cc3c(SCCCN3C(=O)c4ccccc4C3=O)c2c1 : < 10 µM

Per the records, this compound ( COc1ccc2nc3ccc(OC)cc3c(SCCCN(C)C)c2c1 ) has IC50 equal to < 0.05 µM

Value of IC50 reported for the compound COc1ccc2nc3ccccc3c(SCCCN)c2c1 is < 0.05 µM

Recorded IC50 (compound COc1ccc2nc(-c3ccccc3)cc(SCCCN)c2c1 ): < 10 µM

Record CCN(CC)CCCNc1c2ccccc2nc2c(OC)cc(OC)cc12 , field IC50: > 20 µM

Quick note, IC50 for COc1cc2nc3ccccc3c(SCCCN)c2cc1OC landed at > 20 µM

Entry COc1ccc2nc3ccc(Cl)cc3c(SCCCN)c2c1 — recorded IC50 = < 0.1 µM

Just so you know, measured IC50 for COc1ccc2nc3ccc(OC)cc3c(OCCCN)c2c1 came out at > 20 µM

For record COc1ccc2nc3ccc(OC)cc3c(NCCCN)c2c1 the listed IC50 is < 5 µM

----------
system.name: PIM2 (Homo sapiens, UniProt Q9P1W9)
Sequence (Q9P1W9 whole entry, species assumed): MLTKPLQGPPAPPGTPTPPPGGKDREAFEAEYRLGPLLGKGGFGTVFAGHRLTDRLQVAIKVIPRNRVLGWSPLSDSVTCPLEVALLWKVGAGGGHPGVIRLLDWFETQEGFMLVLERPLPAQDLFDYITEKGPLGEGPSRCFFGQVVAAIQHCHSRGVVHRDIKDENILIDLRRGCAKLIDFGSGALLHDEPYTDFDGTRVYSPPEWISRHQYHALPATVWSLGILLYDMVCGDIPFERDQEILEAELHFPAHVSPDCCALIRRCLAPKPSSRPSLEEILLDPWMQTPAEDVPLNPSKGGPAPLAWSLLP
measured.endpoint: IC50 (µM)
Give a bare numeral; the unit µM is implied.

The compound listed as COc1ccc2nc3ccc(OC)cc3c(SCCCN)c2c1 [LDN-192960] shows IC50 equal to 56

----------
system.name: HIPK2 (Homo sapiens, UniProt Q9H2X6)
Sequence (Q9H2X6 whole entry, species assumed): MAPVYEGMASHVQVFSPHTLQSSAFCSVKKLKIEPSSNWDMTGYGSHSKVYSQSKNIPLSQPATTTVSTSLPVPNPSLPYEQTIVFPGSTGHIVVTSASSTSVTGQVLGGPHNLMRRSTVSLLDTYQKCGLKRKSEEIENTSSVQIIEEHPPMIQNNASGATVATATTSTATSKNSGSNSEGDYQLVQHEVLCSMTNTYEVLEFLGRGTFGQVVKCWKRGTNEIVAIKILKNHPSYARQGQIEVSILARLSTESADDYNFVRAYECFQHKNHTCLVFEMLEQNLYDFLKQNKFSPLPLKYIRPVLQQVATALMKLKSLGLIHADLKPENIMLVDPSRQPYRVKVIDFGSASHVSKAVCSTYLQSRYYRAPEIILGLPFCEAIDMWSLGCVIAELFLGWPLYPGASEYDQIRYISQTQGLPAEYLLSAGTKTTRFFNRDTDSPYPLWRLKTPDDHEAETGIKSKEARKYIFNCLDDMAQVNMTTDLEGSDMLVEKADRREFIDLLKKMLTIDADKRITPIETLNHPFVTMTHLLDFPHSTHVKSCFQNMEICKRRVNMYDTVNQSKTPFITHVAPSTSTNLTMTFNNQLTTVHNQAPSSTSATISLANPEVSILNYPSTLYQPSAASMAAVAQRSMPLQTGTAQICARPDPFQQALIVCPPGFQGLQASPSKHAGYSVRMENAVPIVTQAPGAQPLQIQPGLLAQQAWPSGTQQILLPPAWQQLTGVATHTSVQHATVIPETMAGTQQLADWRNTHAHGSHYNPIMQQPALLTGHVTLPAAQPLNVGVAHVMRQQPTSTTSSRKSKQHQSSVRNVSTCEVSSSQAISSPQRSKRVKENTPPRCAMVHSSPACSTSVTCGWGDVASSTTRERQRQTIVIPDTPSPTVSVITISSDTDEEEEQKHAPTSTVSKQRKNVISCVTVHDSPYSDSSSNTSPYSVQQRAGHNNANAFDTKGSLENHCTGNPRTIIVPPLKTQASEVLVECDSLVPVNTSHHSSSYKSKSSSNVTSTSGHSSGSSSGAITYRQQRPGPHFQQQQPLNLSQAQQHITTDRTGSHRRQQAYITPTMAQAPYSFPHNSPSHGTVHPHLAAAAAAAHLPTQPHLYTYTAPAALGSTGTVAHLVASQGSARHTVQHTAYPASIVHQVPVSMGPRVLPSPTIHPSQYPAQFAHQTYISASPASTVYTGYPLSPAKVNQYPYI
measured.endpoint: IC50 (nM)
Hi! Could you send only the number? It should be in nM, unit omitted.

// IC50 lookup, compound = COc1ccc2nc3ccc(OC)cc3c(SCCCN)c2c1 , result: 1300

----------
system.name: ROS (Homo sapiens, UniProt P08922)
Sequence (P08922 28-2347, species assumed): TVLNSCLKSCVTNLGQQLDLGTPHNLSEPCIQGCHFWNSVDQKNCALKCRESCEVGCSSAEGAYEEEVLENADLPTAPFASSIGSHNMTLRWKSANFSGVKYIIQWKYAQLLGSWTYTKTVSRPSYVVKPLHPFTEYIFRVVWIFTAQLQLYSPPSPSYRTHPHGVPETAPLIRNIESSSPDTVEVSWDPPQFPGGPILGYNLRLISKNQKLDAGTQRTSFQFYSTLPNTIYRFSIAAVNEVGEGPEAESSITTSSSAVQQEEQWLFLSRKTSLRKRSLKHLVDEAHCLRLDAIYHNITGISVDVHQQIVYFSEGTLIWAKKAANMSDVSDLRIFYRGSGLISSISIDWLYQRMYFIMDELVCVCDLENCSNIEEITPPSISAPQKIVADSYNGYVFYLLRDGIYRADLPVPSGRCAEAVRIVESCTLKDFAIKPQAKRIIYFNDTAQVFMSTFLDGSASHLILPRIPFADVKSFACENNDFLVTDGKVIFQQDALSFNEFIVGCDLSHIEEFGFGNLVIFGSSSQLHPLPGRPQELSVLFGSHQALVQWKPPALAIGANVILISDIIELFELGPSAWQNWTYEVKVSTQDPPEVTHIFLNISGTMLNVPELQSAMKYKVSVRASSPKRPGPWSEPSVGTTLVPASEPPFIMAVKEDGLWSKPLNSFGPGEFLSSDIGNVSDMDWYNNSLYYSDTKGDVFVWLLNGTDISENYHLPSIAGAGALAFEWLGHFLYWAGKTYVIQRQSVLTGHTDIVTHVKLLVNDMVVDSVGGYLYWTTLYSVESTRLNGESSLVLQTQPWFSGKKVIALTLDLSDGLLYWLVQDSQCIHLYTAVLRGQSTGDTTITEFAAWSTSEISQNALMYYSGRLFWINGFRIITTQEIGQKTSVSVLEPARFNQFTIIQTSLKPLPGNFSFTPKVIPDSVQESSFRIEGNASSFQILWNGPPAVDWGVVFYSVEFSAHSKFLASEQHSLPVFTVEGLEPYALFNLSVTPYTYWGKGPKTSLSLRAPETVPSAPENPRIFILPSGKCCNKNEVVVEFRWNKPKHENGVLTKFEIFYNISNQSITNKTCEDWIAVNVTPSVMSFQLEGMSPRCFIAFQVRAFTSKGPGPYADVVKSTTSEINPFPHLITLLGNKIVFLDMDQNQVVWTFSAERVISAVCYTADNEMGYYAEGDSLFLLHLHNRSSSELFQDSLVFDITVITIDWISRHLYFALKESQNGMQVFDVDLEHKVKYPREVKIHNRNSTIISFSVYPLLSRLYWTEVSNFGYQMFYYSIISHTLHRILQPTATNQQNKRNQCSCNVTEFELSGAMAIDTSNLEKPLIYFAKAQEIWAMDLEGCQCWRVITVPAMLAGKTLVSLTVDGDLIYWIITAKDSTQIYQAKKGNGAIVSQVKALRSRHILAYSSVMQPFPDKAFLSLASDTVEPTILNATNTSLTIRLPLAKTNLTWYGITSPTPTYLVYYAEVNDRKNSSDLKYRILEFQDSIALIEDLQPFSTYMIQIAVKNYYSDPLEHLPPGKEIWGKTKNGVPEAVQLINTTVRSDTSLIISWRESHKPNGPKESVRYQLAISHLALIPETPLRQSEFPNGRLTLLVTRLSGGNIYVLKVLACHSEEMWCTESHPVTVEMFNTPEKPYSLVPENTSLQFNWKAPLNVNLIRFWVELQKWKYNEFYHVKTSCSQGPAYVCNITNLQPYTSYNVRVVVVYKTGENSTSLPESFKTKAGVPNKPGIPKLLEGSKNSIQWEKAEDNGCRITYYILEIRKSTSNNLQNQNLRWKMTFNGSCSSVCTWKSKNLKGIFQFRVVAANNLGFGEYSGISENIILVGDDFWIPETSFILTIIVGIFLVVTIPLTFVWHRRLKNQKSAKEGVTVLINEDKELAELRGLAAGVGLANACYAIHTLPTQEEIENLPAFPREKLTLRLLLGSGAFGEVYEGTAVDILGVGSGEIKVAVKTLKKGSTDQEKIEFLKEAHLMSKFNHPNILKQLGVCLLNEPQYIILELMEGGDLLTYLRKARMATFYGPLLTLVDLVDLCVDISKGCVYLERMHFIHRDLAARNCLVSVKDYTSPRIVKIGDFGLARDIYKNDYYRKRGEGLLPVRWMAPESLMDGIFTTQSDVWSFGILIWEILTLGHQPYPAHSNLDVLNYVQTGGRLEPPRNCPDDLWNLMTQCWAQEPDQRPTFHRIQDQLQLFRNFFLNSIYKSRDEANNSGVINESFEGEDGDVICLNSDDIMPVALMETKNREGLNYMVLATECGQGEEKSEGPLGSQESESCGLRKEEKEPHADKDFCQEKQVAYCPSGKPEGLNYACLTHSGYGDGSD
measured.endpoint: pIC50
The value called pIC50 is obtained by taking minus log10 of the concentration in mol/L.

Observed pIC50 on ROS (Homo sapiens, UniProt P08922), entry COc1ccc2nc3ccc(OC)cc3c(SCCCN)c2c1 [LDN-192960] , equals 5.80

----------
// reported IC50 for each item listed
system.name: human DYRK2 (GST-DYRK2) (Homo sapiens)
Sequence (Q92630 1-601): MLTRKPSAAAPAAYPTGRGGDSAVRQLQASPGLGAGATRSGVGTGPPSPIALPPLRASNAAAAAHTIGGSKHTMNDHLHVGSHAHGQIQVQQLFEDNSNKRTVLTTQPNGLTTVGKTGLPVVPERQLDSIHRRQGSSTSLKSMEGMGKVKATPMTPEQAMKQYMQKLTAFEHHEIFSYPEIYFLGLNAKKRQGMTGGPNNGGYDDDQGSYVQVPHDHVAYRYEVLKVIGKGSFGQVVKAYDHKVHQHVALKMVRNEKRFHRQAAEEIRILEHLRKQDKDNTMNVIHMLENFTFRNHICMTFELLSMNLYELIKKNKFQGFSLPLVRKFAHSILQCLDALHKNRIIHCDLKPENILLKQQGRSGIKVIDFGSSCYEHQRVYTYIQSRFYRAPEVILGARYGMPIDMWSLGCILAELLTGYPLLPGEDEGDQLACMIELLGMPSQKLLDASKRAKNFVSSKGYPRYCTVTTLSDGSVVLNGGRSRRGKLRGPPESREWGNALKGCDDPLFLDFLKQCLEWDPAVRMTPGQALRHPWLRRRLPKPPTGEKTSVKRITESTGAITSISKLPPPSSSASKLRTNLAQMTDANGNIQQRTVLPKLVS

Test item COc1ccc2nc3ccccc3c(SCCCN)c2c1 ; human DYRK2 (GST-DYRK2) (Homo sapiens); reported IC50 was < 200 nM

----------
Below, each entry is listed with its recorded pIC50.
system.name: human Haspin (MBP-Haspin) (Homo sapiens, UniProt Q8TF76)
Construct: This full-length Haspin gene was cloned into the pMALc2E vector; made in house; host or cells: E. coli Rosetta2(DE3)pLysS
Sequence (Q8TF76 1-798): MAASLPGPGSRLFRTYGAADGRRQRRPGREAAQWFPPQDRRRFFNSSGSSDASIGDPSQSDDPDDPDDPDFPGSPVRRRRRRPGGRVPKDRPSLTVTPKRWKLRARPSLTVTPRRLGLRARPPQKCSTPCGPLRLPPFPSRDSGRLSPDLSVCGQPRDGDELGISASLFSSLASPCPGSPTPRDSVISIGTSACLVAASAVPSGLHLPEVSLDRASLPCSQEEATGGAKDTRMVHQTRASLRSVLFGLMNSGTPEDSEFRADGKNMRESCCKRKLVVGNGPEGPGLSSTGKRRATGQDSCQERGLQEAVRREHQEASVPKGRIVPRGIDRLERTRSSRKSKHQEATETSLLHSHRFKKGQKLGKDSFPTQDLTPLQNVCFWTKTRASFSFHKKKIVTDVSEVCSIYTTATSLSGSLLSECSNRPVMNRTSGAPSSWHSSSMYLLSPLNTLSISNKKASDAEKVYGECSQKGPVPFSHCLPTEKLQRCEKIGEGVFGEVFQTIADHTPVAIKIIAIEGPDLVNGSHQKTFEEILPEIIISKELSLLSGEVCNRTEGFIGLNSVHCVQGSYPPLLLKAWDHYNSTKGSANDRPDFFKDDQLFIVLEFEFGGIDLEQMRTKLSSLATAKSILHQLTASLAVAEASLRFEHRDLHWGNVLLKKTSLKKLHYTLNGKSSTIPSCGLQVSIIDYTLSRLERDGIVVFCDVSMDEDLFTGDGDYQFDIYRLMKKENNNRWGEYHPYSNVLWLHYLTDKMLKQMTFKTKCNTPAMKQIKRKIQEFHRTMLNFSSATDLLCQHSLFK
assay.procedure: TR-FRET Haspin assay
Format: biochemical
measurement.conditions: TR-FRET assay of Example 3
pIC50: −log10 of the molar value.

Answered cases to consult:
smiles.text: NCCCSc1c2ccccc2nc2ccccc12
endpoint.result: > 5.00

smiles.text: COc1ccc2nc3ccc(C)cc3c(SCCCN)c2c1
endpoint.result: > 7.00

smiles.text: COc1ccc2nc3c(c(SCCCN)c2c1)CCCC3
endpoint.result: > 6.30

smiles.text: COc1ccc2nc3ccccc3c(SCCCN3C(=O)c4ccccc4C3=O)c2c1
endpoint.result: > 5.00

smiles.text: COc1ccc2nc3ccc(OC)cc3c(SCCCCN)c2c1
endpoint.result: > 7.30

Response field pIC50 (human Haspin (MBP-Haspin) (Homo sapiens, UniProt Q8TF76)) for item COc1ccc2nc3ccc(OC)cc3c(CCCCN)c2c1 : > 7.30

Bench note, human Haspin (MBP-Haspin) (Homo sapiens, UniProt Q8TF76): COc1cc2c(SCCCN)c3ccccc3nc2cc1Cl , pIC50 reads > 7.00

Case CNCCCSc1c2cc(OC)ccc2nc2ccc(OC)cc12 , human Haspin (MBP-Haspin) (Homo sapiens, UniProt Q8TF76), pIC50 recorded as > 8.00

Test item COc1cc(OC)c2nc3ccccc3c(NCCCN(C)C)c2c1 ; human Haspin (MBP-Haspin) (Homo sapiens, UniProt Q8TF76); reported pIC50 was < 4.70

Noted pIC50 for COc1ccc2nc3ccc(OC)cc3c(SCCN)c2c1 , tested on human Haspin (MBP-Haspin) (Homo sapiens, UniProt Q8TF76): > 6.70

----------
system.name: human DYRK2 (GST-DYRK2) (Homo sapiens)
Construct: purchased Carna Biosciences, Japan
assay.procedure: DYRK2 inhibitor assay (33P incorporation into Woodtide peptide)
Type: biochemical
measurement.conditions: DYRK2 assay of Example 7
pIC50: −log10 of the molar value.
measured.endpoint: pIC50

Entry COc1ccc2nc3ccc(C)cc3c(SCCCN)c2c1 [LDN-209928] ; pIC50 = > 6.30

Lab book: pIC50 of COc1ccc2nc(-c3ccccc3)cc(SCCCN)c2c1 [LDN-209964] noted as < 5.00

----------
Please consider the recorded IC50 for human DYRK2 (GST-DYRK2) (Homo sapiens) in what follows.

The recorded IC50 with human DYRK2 (GST-DYRK2) (Homo sapiens) for COc1ccc2nc3ccc(OC)cc3c(SCCCCN)c2c1 [LDN-209959] was < 50 nM

Fill in: human DYRK2 (GST-DYRK2) (Homo sapiens) IC50 for NCCCSc1c2cc(O)ccc2nc2ccc(O)cc12 [LDN-209838] = < 200 nM

For the compound COc1ccc2nc3c(c(SCCCN)c2c1)CCCC3 [LDN-211840] , the measured IC50 on human DYRK2 (GST-DYRK2) (Homo sapiens) was < 10000 nM

Simply: CCN(CC)CCCNc1c2ccccc2nc2c(OC)cc(OC)cc12 [LDN-209840] , human DYRK2 (GST-DYRK2) (Homo sapiens), IC50 = > 1000 nM

The recorded IC50 with human DYRK2 (GST-DYRK2) (Homo sapiens) for COc1ccc2nc3ccc(OC)cc3c(SCCCN(C)C)c2c1 [LDN-212055] was < 500 nM

Summary: COc1cc2c(SCCCN)c3ccccc3nc2cc1Cl [LDN-209957] , human DYRK2 (GST-DYRK2) (Homo sapiens), IC50 = < 10000 nM

For the compound COc1ccc2nc3ccccc3c(SCCCN3C(=O)c4ccccc4C3=O)c2c1 [LDN-211849] , the measured IC50 on human DYRK2 (GST-DYRK2) (Homo sapiens) was < 1000 nM

Just for reference, patent US20130102627A1 is where these values come from.
